# credit: patent US10807944B2

- TEST: in vivo
- MEASUREMENT CONDITIONS: mouse, plasma, po, 80 mg/kg
READOUT TYPE: Tmax (min)
The reply should be a number in min, with the unit left off.

Inquiry: Using the record for CCCCNNC(=O)c1ccc(Br)cc1 [UF010, 4-bromo-N′-butylbenzohydrazide] , report its Tmax.
Reply text: 15

====

# pIC50 listing for each entry below
- SUBJECT OF TEST: HDAC3 (Homo sapiens (Human))
- Sequence (O15379 whole entry): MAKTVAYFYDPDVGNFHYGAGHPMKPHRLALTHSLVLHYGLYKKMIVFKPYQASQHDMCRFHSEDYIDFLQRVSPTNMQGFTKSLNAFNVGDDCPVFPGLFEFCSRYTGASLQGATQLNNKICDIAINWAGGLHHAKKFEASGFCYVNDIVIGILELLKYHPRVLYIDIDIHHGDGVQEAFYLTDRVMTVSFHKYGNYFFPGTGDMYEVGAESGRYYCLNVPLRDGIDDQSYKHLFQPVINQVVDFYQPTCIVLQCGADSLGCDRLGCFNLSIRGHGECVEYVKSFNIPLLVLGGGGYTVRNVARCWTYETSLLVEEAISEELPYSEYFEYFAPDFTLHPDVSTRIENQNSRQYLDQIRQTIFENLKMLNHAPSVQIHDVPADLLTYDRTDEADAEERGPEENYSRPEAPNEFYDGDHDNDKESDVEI
- Sequence (Q9Y618 395-489 partner): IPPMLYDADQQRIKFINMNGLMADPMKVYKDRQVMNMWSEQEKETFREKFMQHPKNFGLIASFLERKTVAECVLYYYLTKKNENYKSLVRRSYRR
- TEST: HDAC-3 inhibition potency, luminescence readout
- Assay type: biochemical
- MEASUREMENT CONDITIONS: Table 6, luminescence readout
Keep it numeric: pIC50 is minus log10 of the concentration in mol/L.

CCCCNNC(=O)c1ccc(Br)cc1 [UF010, 4-bromo-N′-butylbenzohydrazide] ... 6.72

--- query ---
Inquiry: Using the record for `CCCCNNC(=O)c1ccc(-c2cccc(F)c2F)cc1` , report its pIC50.
Reply text: 8.22
